# targetOrSystem: T1, PACAP27 (Pituitary Adenylate Cyclase-Activating Polypeptide, 27 amino acids) (human, the C-terminal leucine is amidated)
# T1 construct: also called human PACAP27
# T1 peptide: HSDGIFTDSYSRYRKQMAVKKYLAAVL
# testDescription: SPR (ProteOn XPR36), antibody amine-coupled, peptide analyte, 1:1 Langmuir fit
valueKind: koff

Query: State the recorded koff for this entry: Ab21 (antibody, human IgG1, kappa, N297A, V domains shown, Full-length anti-PACAP antibody; rabbit/human chimeric) VH: QSVEESGGRLVTPGTPLTLTCTVSGIDLSSYYMTWVRQAPGKGLEWVGFIDAGGSAYYATWAKGRFTISKASTTVDLKITSPTTEDTATYFCARDLDLWGPGTLVTVSS VL: AAVLTQTPSPVSAAVGGTVSISCKSSESVYGDYLAWFQQKPGQPPKQLIYDASTLASGVPSRFKGSGSGTQFTLTISGVQCDDAATYYCAGGYVSAGVAFGGGTEVVVKR
Reply: ≤ 1e-05 s⁻¹
